# Tested on: NCI-H460 lung
# test-summary: NCI-60 one-dose screen, 48 h
# reported-conditions: 10 µM unless noted
The panel holds about 83,000 compounds, 20% with a hit somewhere; the sample as a whole holds those more often. Activity calls are given as the source filed them. The calls were made as follows: active = growth percent below 10; inactive = the rest.
Outcome codes: active, inactive

| molecule | answer-label |
| --- | --- |
| N#[N+]c1nc2nc(N)[nH]c(=O)c2[nH]1 | inactive |
| C[CH2][Pb]([CH2]C)([CH2]C)[O]C(=O)COc1ccccc1 | active |
| CC1(C)N=C(N)N=C(N)N1c1ccc(CCC(=O)Nc2cccc(S(=O)(=O)F)c2)cc1 | inactive |
| CC1(C)N=C(N)N=C(N)N1c1ccc(CNC(=O)Nc2ccc(S(=O)(=O)F)c(Cl)c2)c(Cl)c1 | active |
| CC(C)(C)NCC(O)c1ccccc1Cl (configuration not stated) | active |
| C/C(=C\C(=O)O[C@H]1[C@@H]2[C@H](C)CC[C@H]2[C@]2(C)O[C@@]1(C1CCCCC1)C[C@H]2OC(=O)CO)c1ccccc1 | inactive |
| CC(C)Nc1ccc(Nc2ccccc2)cc1 | inactive |
| CC1(C)N=C(N)N=C(N)N1c1ccc(OCCCCNC(=O)Nc2cccc(S(=O)(=O)F)c2)c(Cl)c1 | inactive |
| ClCCN(CCCl)c1ccc(C=NCCc2c[nH]c3ccccc23)cc1 | inactive |
| Nc1ccc([N+](=O)[O-])c2c1Oc1ccccc1O2 | inactive |
| [O]=[Sn]([CH]1CCCCC1)[CH]1CCCCC1 | active |
| O=C(/C=C/c1ccccc1)N[C@@H](CO)Cc1cnc[nH]1 | inactive |
| COc1ccc(C(=O)c2ccc([As]=O)cc2)cc1 (configuration not stated) | active |
| C=CCc1ccc(OC(=O)Cc2ccccc2)c(OC)c1 | inactive |
| CC(C)(C)N(Cc1ccccc1)N=O | inactive |
| O=C1NC(=O)C(O)(C2(O)C(=O)NC(=O)NC2=O)C(=O)N1 | inactive |
| O=CN1N=C(c2ccc3c(c2)OCO3)CC1c1sc(N(CCCl)CCCl)nc1Cl (configuration not stated) | inactive |
| COC[CH2][Hg][C]#[C][Hg][CH2]COC | inactive |
| O=C1C=CC(=O)C2C1C1(Cl)C(Cl)=C(Cl)C2(Cl)C1(Cl)Cl (configuration not stated) | inactive |
| O=C1c2ccccc2C(=O)N1[N+](=O)[O-] | inactive |
| CN1C(=O)NC(=O)C(N=Nc2ccc(Cl)cc2)C1=O (configuration not stated) | inactive |
| CC1(C)N=C(N)N=C(N)N1c1cccc(C(=O)Nc2cccc(S(=O)(=O)F)c2)c1 | inactive |
| CC12CCC(=O)C=C1CCC1C2CCC2(C)C(C(=O)COC(=O)Cc3ccc(N(CCCl)CCCl)cc3)CCC12 (configuration not stated) | inactive |
| O=CN1N=C(c2ccccc2)CC1c1sc(N(CCCl)CCCl)nc1Cl (configuration not stated) | inactive |
| O=C1NC(=O)C(CN2C(=O)C3(c4ccccc42)[C@H](Cl)C(=O)N3c2ccccc2)C(=O)N1 (some centres not stated) | inactive |
| COc1cc(C2=NN(c3ccccc3)C(c3sc(N(CCCl)CCCl)nc3Cl)C2)cc(OC)c1OC (configuration not stated) | inactive |
| O=C(CF)N(O)c1ccc(/C=C/c2ccccc2)cc1 | inactive |
| O=[As]c1ccc(C(=O)c2ccc(Oc3ccccc3)cc2)cc1 (configuration not stated) | active |
| S=P(Nc1ccccc1)(Nc1ccccc1)c1ccccc1 | inactive |
| O=C(CC1(O)C(=O)Nc2ccc(F)cc21)c1ccc(C(=O)NCC2CCC3(CC2)OOC2(CCCCC2)OO3)cc1 (configuration not stated) | inactive |
| NC(=O)SCC(=O)Nc1ccc([As](=O)(O)O)cc1 | inactive |
| O=C(CCCN1CCC2(CC1)C(=O)NCN2c1ccc(F)cc1)c1ccc(F)cc1 | inactive |
| CCOC(=O)Nc1cc(Cl)c([N+](=O)[O-])c(NC(=O)OCC)n1 | inactive |
| CCOC(=O)C1(c2ccccc2)CCN(CC(=O)c2ccc(NC(C)=O)cc2)CC1 | inactive |
| O=C(NCCNC(=O)c1ccc([As](O)O)cc1)c1ccc([As](O)O)cc1 | inactive |
| CO[C@@H]([CH2][Hg][S]C#N)[C@@H]([CH2][Hg][S]C#N)OC | inactive |
| CNC(=O)Oc1cccc(N(C)C)c1 | inactive |
| CC(=O)OC1CCC2(C)C(=CCC3C4CC(CN5CC5)C(=O)C4(C)CCC32)C1 (configuration not stated) | inactive |
| C[C@]12CC[C@H]3[C@@H](C[C@@H]4N=C(c5ccc(O)cc5)S[C@@]45C[C@H](O)CC[C@]35C)[C@@H]1CC[C@@H]2O | inactive |
| O=C(N/N=C/c1ccc([N+](=O)[O-])o1)c1cc([N+](=O)[O-])cc([N+](=O)[O-])c1O | inactive |
| CCC[CH2][Sn]([CH2]CCC)([CH2]CCC)[O]C(=O)CC | active |
| CNC(C)Cc1ccccc1 (configuration not stated) (tested in a mixture with another compound) | inactive |
